- assay-target: His-GST-TVMV-hRIPK1(1-324) (Homo sapiens (Human), UniProt Q13546)
- Sequence (Q13546 1-324): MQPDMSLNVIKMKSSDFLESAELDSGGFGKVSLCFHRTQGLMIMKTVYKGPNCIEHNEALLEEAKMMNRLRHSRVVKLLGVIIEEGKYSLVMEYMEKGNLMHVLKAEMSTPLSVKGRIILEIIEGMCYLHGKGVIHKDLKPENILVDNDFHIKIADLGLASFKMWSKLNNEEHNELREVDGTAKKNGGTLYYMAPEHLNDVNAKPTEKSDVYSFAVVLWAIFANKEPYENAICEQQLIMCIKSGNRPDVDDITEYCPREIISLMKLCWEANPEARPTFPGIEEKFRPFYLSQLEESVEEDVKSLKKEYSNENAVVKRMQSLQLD
- protocol-details: RIPK1 HTRF Binding Assay
- test-context: HTRF binding, 1 h at rt; read-out: RIPK1 (IC50)
measured-parameter: log10(IC50) (log10 of the value in µM)
All values: base-10 log of IC50 in µM.

| compound | observed-value |
| --- | --- |
| COc1ncc(-c2ccc3nc(NC(C)=O)cn3n2)cc1C(=O)NCc1cc(F)cc(F)c1OC1CC(C)OC(C)C1 (centres unmarked) | -1.29 |
| CC(=O)Nc1cn2nc(-c3ccc(C)c(C(=O)NCC(O)COc4ccccc4)c3)ccc2n1 (centres unmarked) | -1.96 |
| COc1ncc(-c2ccc3nc(NC(C)=O)cn3n2)cc1C(=O)NCc1ccccc1S(=O)(=O)C1CC1 | -1.51 |

Field request: log10(IC50) | item: COc1ncc(-c2ccc3nc(NC(C)=O)cn3n2)cc1C(=O)NCc1cccc(C(F)(F)F)c1
-1.57

Field request: log10(IC50) | item: CC(=O)Nc1cn2nc(-c3cc(C(=O)NCc4cc(OCC5CC5)ccc4F)c(C)nc3C)ccc2n1
-2.22

====

- assay-target: His-GST-TVMV-hRIPK1(1-324) (Homo sapiens (Human))
- protocol-details: RIPK1 HTRF Binding Assay
- test-context: HTRF binding, 1 h at rt; read-out: RIPK1 (IC50)
Reported values of pIC50 for individual entries
Just so you know, pIC50 here is -log10 of the concentration in molar units; reply with that number alone.

| compound | assay-target | pIC50 |
| --- | --- | --- |
| CC(=O)Nc1cn2nc(-c3cnc(C)c(C(=O)NC(C)c4cc(C(F)(F)F)ccc4F)c3)ccc2n1 (stereo not drawn) [Example 205] | His-GST-TVMV-hRIPK1(1-324) (Homo sapiens (Human)) | 7.57 |
| COc1ccc(-c2ccc3nc(NC(C)=O)cn3n2)c(F)c1C(=O)N[C@@H](C)c1cc(OC(F)(F)F)ccc1F [Example 375] | His-GST-TVMV-hRIPK1(1-324) (Homo sapiens (Human)) | 7.92 |
| CC(=O)Nc1cn2nc(-c3cnc(C)c(C(=O)NCc4ccccc4OC(C)C)c3)ccc2n1 [Example 20] | His-GST-TVMV-hRIPK1(1-324) (Homo sapiens (Human)) | 7.34 |

Field request: pIC50 | item: CC(=O)Nc1cn2nc(-c3cnc(C)c(C(=O)NCc4c(F)cccc4OCC4CCC4)c3)ccc2n1 [Example 219]
8.52

Field request: pIC50 | item: COc1ncc(-c2ccc3nc(NC(C)=O)cn3n2)cc1C(=O)NCc1ccccc1OCC1CCC1 [Example 155]
8.70

Field request: pIC50 | item: [2H]C([2H])([2H])Oc1ncc(-c2ccc3nc(NC(C)=O)cn3n2)cc1C(=O)NC(C)c1cc(C(F)(F)F)ccc1F (stereo not drawn) [Example 51]
7.20

Field request: pIC50 | item: COc1ncc(-c2ccc3nc(NC(C)=O)cn3n2)cc1C(=O)NCc1cc(OCC2CC2)ccc1F [Example 149]
7.80

Field request: pIC50 | item: COc1nc(C)c(-c2ccc3nc(NC(C)=O)cn3n2)cc1C(=O)NCc1cccc(OCC2CC2)c1 [Example 309]
7.72
